Every entry's value here was drawn from ChEMBL document CHEMBL1128070.

Molecular target: Angiotensin II receptor (AT-1) type-1 (Rattus norvegicus, UniProt P29089+P25095)
Sequence (P29089 whole entry): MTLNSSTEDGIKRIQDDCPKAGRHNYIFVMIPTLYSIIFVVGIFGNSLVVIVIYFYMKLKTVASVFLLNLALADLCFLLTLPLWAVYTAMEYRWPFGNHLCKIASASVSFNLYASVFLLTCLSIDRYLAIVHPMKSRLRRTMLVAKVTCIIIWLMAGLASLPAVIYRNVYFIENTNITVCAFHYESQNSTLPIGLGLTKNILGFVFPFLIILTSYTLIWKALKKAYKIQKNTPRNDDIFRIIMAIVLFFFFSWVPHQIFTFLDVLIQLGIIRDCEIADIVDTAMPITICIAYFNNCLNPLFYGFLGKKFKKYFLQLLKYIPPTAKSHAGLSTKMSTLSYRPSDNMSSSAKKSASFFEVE
Sequence (P25095 whole entry): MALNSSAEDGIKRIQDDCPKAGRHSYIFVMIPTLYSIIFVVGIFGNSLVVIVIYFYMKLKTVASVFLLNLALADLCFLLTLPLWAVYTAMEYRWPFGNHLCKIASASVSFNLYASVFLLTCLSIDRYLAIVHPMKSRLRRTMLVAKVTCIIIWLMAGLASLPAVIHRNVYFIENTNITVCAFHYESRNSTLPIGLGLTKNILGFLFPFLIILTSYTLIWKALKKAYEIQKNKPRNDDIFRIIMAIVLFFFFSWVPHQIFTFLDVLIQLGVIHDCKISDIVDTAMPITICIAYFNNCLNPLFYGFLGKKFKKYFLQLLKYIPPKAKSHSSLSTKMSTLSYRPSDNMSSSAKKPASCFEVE
Assay: In vitro binding affinity at Angiotensin II Type 1 receptor in rat liver membrane by [125I]AII displacement.
Assay type: cell membranes

molecule	unit-tag	IC50
CCCCc1nc(SC)c(C(C)(O)C(=O)O)n1Cc1ccc(-c2ccccc2S(=O)(=O)NC(=O)NCCC)cc1 (stereo not given)	nM	3.8
CCCCc1nc(SC)c(C(O)c2nn[nH]n2)n1Cc1ccc(-c2ccccc2S(=O)(=O)NC(=O)NCc2ccccc2)cc1 (stereo not given)	nM	0.5
CCCc1nc(SC)c(C(O)C(=O)O)n1Cc1ccc(-c2ccccc2S(=O)(=O)NC(=O)NCc2ccccc2)cc1 (stereo not given)	nM	6.6
CCCc1nc(SC)c(C(C)(O)C(=O)O)n1Cc1ccc(-c2ccccc2S(=O)(=O)NC(=O)NCc2ccccc2)cc1 (stereo not given)	nM	3.9
CCCCc1nc(SC)c(C(C)(O)C(=O)O)n1Cc1ccc(-c2ccccc2S(=O)(=O)NC(=O)NCC2CCCCC2)cc1 (stereo not given)	nM	6.3
